Assay: Hemolytic activity in human erythrocytes assessed as release of hemoglobin at 0.19 mg/mL after 60 mins relative to control
Type: ADME, cell-based, Erythrocyte
Settings: read-out: Activity
parameter: hemolysis at 1 h, 0.19 mg/mL (%)
Give bare numbers, in %.

Short answer for CN1C(=[Se])CC[C@H]1c1cccnc1.C[C@H](CCC(=O)O)[C@H]1CC[C@H]2[C@@H]3CC[C@@H]4C[C@H](O)CC[C@]4(C)[C@H]3C[C@H](O)[C@]12C : hemolysis at 1 h, 0.19 mg/mL was 5

====

Test: Hemolytic activity in human erythrocytes assessed as release of hemoglobin at 0.17 mg/mL after 60 mins relative to control
Type: ADME, cell-based, Erythrocyte
Settings: read-out: Activity
parameter: hemolysis at 1 h, 0.17 mg/mL (%)
Numbers only, in %.

Short answer for C[C@H](CCC(=O)O)[C@H]1CC[C@H]2[C@@H]3CC[C@@H]4C[C@H](O)CC[C@]4(C)[C@H]3C[C@H](O)[C@]12C [SODIUM DEOXYCHOLATE] : hemolysis at 1 h, 0.17 mg/mL was 5
